pIC50 values, listed per item
target: High affinity nerve growth factor receptor (Homo sapiens); assay: Inhibition of TRKA (unknown origin) by Ambit kinase assay
Sequence (P04629 whole entry): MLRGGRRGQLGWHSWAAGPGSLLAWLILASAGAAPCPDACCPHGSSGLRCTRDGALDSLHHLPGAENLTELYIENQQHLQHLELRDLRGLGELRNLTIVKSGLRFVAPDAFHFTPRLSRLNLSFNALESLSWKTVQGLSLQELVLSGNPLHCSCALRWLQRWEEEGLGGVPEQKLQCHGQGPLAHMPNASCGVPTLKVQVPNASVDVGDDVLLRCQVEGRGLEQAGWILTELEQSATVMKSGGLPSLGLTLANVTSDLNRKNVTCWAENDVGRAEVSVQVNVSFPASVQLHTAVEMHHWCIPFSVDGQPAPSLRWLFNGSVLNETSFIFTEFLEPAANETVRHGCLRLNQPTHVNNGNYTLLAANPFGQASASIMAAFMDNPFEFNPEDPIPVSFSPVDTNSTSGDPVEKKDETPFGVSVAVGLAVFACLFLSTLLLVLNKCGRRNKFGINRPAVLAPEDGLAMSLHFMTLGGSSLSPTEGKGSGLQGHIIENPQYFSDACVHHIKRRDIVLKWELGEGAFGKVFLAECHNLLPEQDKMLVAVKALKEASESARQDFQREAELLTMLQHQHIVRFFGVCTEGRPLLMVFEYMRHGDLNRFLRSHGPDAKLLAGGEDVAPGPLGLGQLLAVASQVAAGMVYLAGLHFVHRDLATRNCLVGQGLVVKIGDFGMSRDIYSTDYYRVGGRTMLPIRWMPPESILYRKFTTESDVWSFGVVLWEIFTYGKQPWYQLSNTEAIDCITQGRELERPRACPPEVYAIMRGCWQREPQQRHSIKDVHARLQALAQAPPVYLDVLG
pIC50: −log10 of the molar value.
readout-name: pIC50

[[record]]
smiles_entry = "Cc1cc(NC(=O)Nc2cc(C(C)(C)C)nn2-c2ccc(Cl)cc2)ccc1Nc1cccc2c1OC(C)(C)C(=O)N2"
result_number = 8.70

[[record]]
smiles_entry = "CN(C)CCCOc1ccc2c(NCCc3cnc(NC(=O)Nc4cccc(Cl)c4)s3)ncnc2c1"
result_number = 8.65


* * *

target: BDNF/NT-3 growth factors receptor (Homo sapiens, UniProt Q16620); assay: Inhibition of TRKB (unknown origin) by TR-FRET assay
Sequence (Q16620 whole entry): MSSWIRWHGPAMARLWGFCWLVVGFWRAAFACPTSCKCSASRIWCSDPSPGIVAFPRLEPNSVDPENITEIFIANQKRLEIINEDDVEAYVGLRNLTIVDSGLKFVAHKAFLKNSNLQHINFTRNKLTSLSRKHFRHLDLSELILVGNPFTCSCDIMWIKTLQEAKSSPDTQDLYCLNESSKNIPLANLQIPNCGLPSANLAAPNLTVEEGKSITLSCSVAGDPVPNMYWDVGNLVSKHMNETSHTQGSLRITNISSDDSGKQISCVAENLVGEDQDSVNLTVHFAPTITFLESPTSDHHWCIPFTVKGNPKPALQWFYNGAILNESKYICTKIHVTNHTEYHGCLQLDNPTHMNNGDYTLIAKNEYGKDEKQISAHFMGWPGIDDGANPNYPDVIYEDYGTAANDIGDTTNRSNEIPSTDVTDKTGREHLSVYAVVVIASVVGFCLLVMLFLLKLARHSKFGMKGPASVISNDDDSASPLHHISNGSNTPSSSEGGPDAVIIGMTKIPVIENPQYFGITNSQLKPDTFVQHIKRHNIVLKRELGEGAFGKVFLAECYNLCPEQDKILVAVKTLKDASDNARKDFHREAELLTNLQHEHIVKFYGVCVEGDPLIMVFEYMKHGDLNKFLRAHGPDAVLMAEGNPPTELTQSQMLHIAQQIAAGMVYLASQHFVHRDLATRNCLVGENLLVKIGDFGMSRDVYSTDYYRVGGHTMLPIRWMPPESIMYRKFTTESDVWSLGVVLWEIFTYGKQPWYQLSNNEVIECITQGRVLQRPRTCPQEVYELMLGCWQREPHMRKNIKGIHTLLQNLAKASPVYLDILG
pIC50: −log10 of the molar value.
readout-name: pIC50

[[record]]
smiles_entry = "Cc1cc(NC(=O)Nc2cc(C(C)(C)C)nn2-c2ccc(Cl)cc2)ccc1Nc1cccc2c1OC(C)(C)C(=O)N2"
readout_name = "pIC50"
result_number = 8.70

